Give melting point for every item shown.
Answer with the number, then the unit.

Observe how each entry below is paired with its result.
## Input Can you share its melting point? I mean this molecule: CNC(=O)C(NC(=O)c1ccc(F)cc1C(F)(F)F)C(O)C(F)(F)F (racemic)
## Output 212 °C

## Input Need melting point, item CNC(=O)C(NC(=O)c1ccc(F)cc1C(F)(F)F)C(O)CO (stereo not shown)
## Output 163 °C

## Input Field request: melting point | item: CNC(=O)C(NC(=O)c1ccc(F)cc1C(F)(F)F)C(O)/C(Cl)=C/c1ccccc1 (racemic)
## Output 140 °C

***
## Input What value of measured melting point is listed for C=CC(O)C(NC(=O)c1ccc(F)cc1C(F)(F)F)C(=O)NC (racemic) ?
## Output 163 °C
